Listing: IC50 of selected compounds
target: A2A receptor (Homo sapiens, UniProt P29274); assay: Inhibition of cAMP production in HEK cells; assay type: cell-based; settings: IC50 (nM) (3 nM NECA as agonist, 0.1% BSA), HEK-293 cells with A2A receptor, 3 nM NECA as agonist, 0.1% BSA
Sequence (P29274 whole entry): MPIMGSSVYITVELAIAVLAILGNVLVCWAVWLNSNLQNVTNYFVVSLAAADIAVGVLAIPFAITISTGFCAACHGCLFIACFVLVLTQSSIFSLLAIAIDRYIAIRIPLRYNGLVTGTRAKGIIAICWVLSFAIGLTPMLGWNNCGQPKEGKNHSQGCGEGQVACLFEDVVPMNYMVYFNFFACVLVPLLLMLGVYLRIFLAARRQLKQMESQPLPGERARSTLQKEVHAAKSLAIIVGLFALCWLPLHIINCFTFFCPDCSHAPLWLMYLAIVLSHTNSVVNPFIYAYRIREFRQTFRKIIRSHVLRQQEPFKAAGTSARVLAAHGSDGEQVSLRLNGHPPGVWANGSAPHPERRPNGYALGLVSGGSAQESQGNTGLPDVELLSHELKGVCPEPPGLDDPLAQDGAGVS
Express it in nM; write the number only.

Consider the reported IC50 for these compounds:
>>> resultvalue("NC(=O)COc1ccc(N2CCN(CCn3c(=O)sc4c3nc(N)n3nc(-c5ccco5)nc43)CC2)c(F)c1")
0.8
>>> resultvalue("CC(C)(O)c1ccc(N2CCN(CCn3c(=O)sc4c3nc(N)n3nc(-c5ccco5)nc43)CC2)c(F)c1")
0.6
>>> resultvalue("CNCCNC(=O)COc1ccc(N2CCN(CCn3c(=O)sc4c3nc(N)n3nc(-c5ccco5)nc43)CC2)c(F)c1")
0.3
>>> resultvalue("Nc1nc2c(sc(=O)n2CCN2CCN(c3ccc(OCC(=O)NCCN4CCOCC4)cc3F)CC2)c2nc(-c3ccco3)nn12")
0.7

**Query** Any idea what its IC50 is? The compound is `CS(=O)(=O)c1ccc(N2CCN(CCn3c(=O)sc4c3nc(N)n3nc(-c5ccco5)nc43)CC2)cc1`
**Result** 1.9

**Query** Thanks! And `Nc1nc2c(sc(=O)n2CCN2CCN(c3ccncc3)CC2)c2nc(-c3ccco3)nn12` ?
**Result** 24

----------
biological target: UniProt:P29274; assay: Inhibition of cAMP production in HEK cells; format: cell-based; details: IC50 (nM) (5 μM Adenosine as agonist, 2.0% HSA), HEK-293 cells with A2A receptor, 5 μM Adenosine as agonist, 2.0% HSA
# note: exactly 200 nM is not below, so it is condition not met; use condition met for IC50 strictly under it

>>> categorylabel("Nc1nc2c(sc(=O)n2CCN2CCN(c3ccc(O[C@H]4CC[S@@+]([O-])CC4)cc3F)CC2)c2nc(-c3ccco3)nn12 (single isomer, unassigned)")
"condition not met"
>>> categorylabel("CN(C)CCNC(=O)c1ccc(N2CCN(CCn3c(=O)sc4c3nc(N)n3nc(-c5ccco5)nc43)CC2)c(F)c1")
"condition not met"
>>> categorylabel("Nc1nc2c(sc(=O)n2CCN2CCN(c3cc(OC[C@H](O)CO)c(F)cc3F)CC2)c2nc(-c3ccco3)nn12")
"condition met"

**Query** # check: IC50 < 200 nM for C[C@H](Oc1cc(N2CCN(CCn3c(=O)sc4c3nc(N)n3nc(-c5ccco5)nc43)CC2)c(F)cc1F)C(=O)O (single isomer, unassigned)
**Result** condition not met

**Query** Thanks! And `CC(C)[C@H](N)C(=O)NCCOc1ccc(N2CCN(CCn3c(=O)sc4c3nc(N)n3nc(-c5ccco5)nc43)CC2)c(F)c1` ?
**Result** condition met

**Query** Thanks! And `Nc1nc2c(sc(=O)n2CCN2CCN(c3cc(OCc4nnn[nH]4)c(F)cc3F)CC2)c2nc(-c3ccco3)nn12` ?
**Result** condition not met

----------
target: A2A receptor (Homo sapiens, UniProt P29274); assay: Inhibition of cAMP production in HEK cells; assay type: cell-based; details: IC50 (nM) (5 μM Adenosine as agonist, 2.0% HSA), HEK-293 cells with A2A receptor, 5 μM Adenosine as agonist, 2.0% HSA
recordedMetric: IC50 (nM)
Express it in nM; write the number only.

Consider the reported IC50 for these molecules:
>>> resultvalue("Nc1nc2c(sc(=O)n2CCN2CCN(c3ccc(OCC(=O)O)cc3)CC2)c2nc(-c3ccco3)nn12")
607
>>> resultvalue("Nc1nc2c(sc(=O)n2CCN2CCN(c3cc(O[C@@H]4CCNC4=O)c(F)cc3F)CC2)c2nc(-c3ccco3)nn12")
19

**Query** For A2A receptor (Homo sapiens, UniProt P29274), provide IC50 of Nc1nc2c(sc(=O)n2CCN2CCN(c3ccc(C(=O)NCC4COCCN4)cc3F)CC2)c2nc(-c3ccco3)nn12 (stereo not shown) please.
**Result** 35

**Query** Thanks! And `C[S@+]([O-])CCNC(=O)c1ccc(N2CCN(CCn3c(=O)sc4c3nc(N)n3nc(-c5ccco5)nc43)CC2)c(F)c1` ?
**Result** 1440
